Tested on: COLO 205 colorectal tumor cells
Test: Tumor cell viability inhibition assay (CellTiter-Glo 2.0, 72 hours)
Type: cell-based
Settings: Homo sapiens, COLO 205, 72 h, COLO 205 cell viability
Catalogue of IC50 values

>>> assay_result("Cc1nc2c(c(=O)n1CC#Cc1ccc(Cl)cc1-c1ccnc3c(C(=O)NS(C)(=O)=O)csc13)C[C@@H](N1CC[C@@H](F)C1)CC2 (single isomer, unassigned)")
"< 5 µM"
>>> assay_result("Cc1cc(-c2cc(Cl)ccc2OCCn2c(C)nc3c(c2=O)C[C@@H](N(C)[C@H]2CC[C@](C)(O)CC2)CC3)c2scc(C(=O)NS(C)(=O)=O)c2n1 (single isomer, unassigned)")
"> 20 µM"
>>> assay_result("CO[C@H]1CCN([C@@H]2CCc3nc(C)n(CCOc4ccc(Cl)cc4-c4cc(C)nc5c(C(=O)O)csc45)c(=O)c3C2)CC12CC2 (single isomer, unassigned)")
"< 5 µM"
>>> assay_result("Cc1cc(-c2cc(Cl)ccc2OCCn2c(C)nc3c(c2=O)CC(N(C2CC2)C2CC2)CC3)c2scc(C(=O)O)c2n1 (centres unmarked)")
"< 5 µM"

Now examine the next entry.
Query block: Provide one value: measured IC50 of Cc1cc(-c2cc(Cl)ccc2OCCn2c(C)nc3c(c2=O)CC(N2CC(C(F)(F)F)C2)CC3)c2scc(C(=O)NS(C)(=O)=O)c2n1 (single isomer, unassigned)
Result block: < 5 µM

###

Molecular target: human eIF4E protein (Homo sapiens, UniProt P06730)
Construct: purchased Novus NBP-45314
Sequence (P06730 whole entry): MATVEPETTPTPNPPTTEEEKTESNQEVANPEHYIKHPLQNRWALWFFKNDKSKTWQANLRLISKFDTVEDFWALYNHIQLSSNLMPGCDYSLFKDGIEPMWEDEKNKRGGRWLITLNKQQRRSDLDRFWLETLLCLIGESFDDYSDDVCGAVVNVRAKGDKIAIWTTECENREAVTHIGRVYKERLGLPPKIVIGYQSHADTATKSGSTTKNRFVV
Experiment: Biochemical competitive binding assay (TR-FRET competition, EDA-m7GDP-ATTO-647N probe)
Conditions: read-out: hEIF4E TR-FRET IC50
Catalogue of IC50 values

Query block: Provide one value: measured IC50 of Cc1cc(-c2cc(Cl)ccc2C#CCn2c(C)nc3c(c2=O)CC(C)(N2CCCC4(C2)CC4(F)F)CC3)c2scc(C(=O)O)c2n1 (single isomer, unassigned) [Compound 615]
Result block: 100 to 500 nM

###

Test system: COLO 205 colorectal tumor cells
Assay: Tumor cell viability inhibition assay (CellTiter-Glo 2.0, 72 hours)
Assay type: cell-based
Conditions: Homo sapiens, COLO 205, 72 h, COLO 205 cell viability
property name: IC50

>>> assay_result("Cc1cc(-c2cc(Cl)ccc2OCCn2c(C)nc3c(c2=O)C[C@@H](N2CCC(c4cnc(C(F)(F)F)nc4)CC2)CC3)c2scc(C(=O)O)c2n1 (single isomer, unassigned) [Compound 585]")
"< 5 µM"
>>> assay_result("Cc1cc(-c2cc(Cl)ccc2OCCn2c(C)nc3c(c2=O)C[C@H](N2CCC[C@@H](C(F)F)C2)CC32CC2)c2scc(C(=O)O)c2n1 (single isomer, unassigned) [Compound 616]")
"< 5 µM"
>>> assay_result("CO[C@H]1CCN([C@@H]2CCc3nc(C)n(CCOc4ccc(Cl)cc4-c4cc(C)nc5c(C(=O)O)csc45)c(=O)c3C2)C1 (single isomer, unassigned) [Compound 48]")
"< 5 µM"
>>> assay_result("Cc1cc(-c2cc(Cl)ccc2OCCn2c(C)nc3c(c2=O)C[C@H](N2CCC(c4cc(F)cc(F)c4F)CC2)CC3)c2scc(C(=O)O)c2n1 (single isomer, unassigned) [Compound 573]")
"< 5 µM"
>>> assay_result("Cc1cc(-c2cc(Cl)ccc2OCCn2c(C)nc3c(c2=O)C[C@H](N2CCC(c4ccn(C)n4)CC2)CC3)c2scc(C(=O)O)c2n1 (single isomer, unassigned) [Compound 453]")
"> 20 µM"
>>> assay_result("Cc1cc(-c2cc(Cl)ccc2OCCn2c(C)nc3c(c2=O)C[C@H](N2CCC[C@@]4(C2)CC4(F)F)CC3(C)C)c2scc(C(=O)O)c2n1 (single isomer, unassigned) [Compound 439]")
"< 5 µM"
>>> assay_result("Cc1cc(-c2cc(Cl)ccc2OCCn2c(C)nc3c(c2=O)C[C@H](N2CCC[C@H](C(F)F)C2)CC32CC2)c2scc(C(=O)O)c2n1 (single isomer, unassigned) [Compound 617]")
"< 5 µM"
>>> assay_result("Cc1cc(-c2cc(Cl)ccc2OCCn2c(C)nc3c(c2=O)C[C@@H](N2CC[C@@H](F)C2)CC3)c2scc(C(=O)NS(C)(=O)=O)c2n1 (single isomer, unassigned) [Compound 312]")
"< 5 µM"
>>> assay_result("Cc1cc(-c2cc(Cl)ccc2OCCn2c(C)nc3c(c2=O)C[C@@H](N2CCC4(CC2)CC4(F)F)CC3)c2scc(C(=O)O)c2n1 (single isomer, unassigned) [Compound 391]")
"< 5 µM"
>>> assay_result("Cc1cc(-c2cc(Cl)ccc2OCCn2c(C)nc3c(c2=O)CC(N(C)C2CC24CCC4)CC3)c2scc(C(=O)O)c2n1 (stereo not drawn) [Compound 262]")
"< 5 µM"

Query block: Provide one value: measured IC50 of Cc1cc(-c2cc(Cl)ccc2OCCn2c(C)nc3c(c2=O)C[C@@H](N2CCCC[C@H]2c2nccs2)CC3)c2scc(C(=O)O)c2n1 (single isomer, unassigned) [Compound 548]
Result block: > 20 µM

Query block: Provide one value: measured IC50 of Cc1cc(-c2cc(Cl)ccc2OCCn2c(C)nc3c(c2=O)CC(N2CCc4[nH]ncc4C2)CC3)c2scc(C(=O)O)c2n1 (stereo not drawn) [Compound 159]
Result block: > 20 µM

Query block: Provide one value: measured IC50 of Cc1nc2c(c(=O)n1CC#Cc1ccc(Cl)cc1-c1ccnc3c(C(=O)O)csc13)C[C@@H](N1CC[C@H](F)C1)CC2 (single isomer, unassigned) [Compound 293]
Result block: < 5 µM

Query block: Provide one value: measured IC50 of Cc1cc(-c2cc(Cl)ccc2OCCn2c(C)nc3c(c2=O)C[C@H](N2CCC[C@]4(C2)CC4(F)F)CC32CC2)c2scc(C(=O)O)c2n1 (single isomer, unassigned) [Compound 581]
Result block: < 5 µM

###

Tested on: COLO 205 colorectal tumor cells
Experiment: Tumor cell viability inhibition assay (CellTiter-Glo 2.0, 72 hours)
Assay type: cell-based
Conditions: Homo sapiens, COLO 205, 72 h, COLO 205 cell viability
pIC50: −log10 of the molar value.
property name: pIC50

Here is how some compounds turned out for pIC50.
>>> assay_result("Cc1cc(-c2cc(Cl)ccc2OCCn2c(C)nc3c(c2=O)C[C@H](N2CCC(N4CC(F)(F)C4)CC2)CC3)c2scc(C(=O)O)c2n1 (single isomer, unassigned)")
"> 5.30"
>>> assay_result("Cc1cc(-c2cc(Cl)ccc2OCCn2c(C)nc3c(c2=O)CC(N(C)Cc2cccc(OC(F)(F)F)c2)CC3)c2scc(C(=O)O)c2n1 (stereo not drawn)")
"> 5.30"
>>> assay_result("Cc1cc(-c2cc(Cl)ccc2OCCn2c(C)nc3c(c2=O)CC(N2CCC(c4cccs4)CC2)CC3)c2scc(C(=O)O)c2n1 (stereo not drawn)")
"> 5.30"
>>> assay_result("Cc1cc(-c2cc(Cl)ccc2OCCn2c(C)nc3c(c2=O)C[C@H](N2CCCC[C@H]2c2cccc(F)c2)CC32CC2)c2scc(C(=O)O)c2n1 (single isomer, unassigned)")
"4.70 to 5.30"
>>> assay_result("Cc1nc2c(c(=O)n1CC#Cc1ccc(Cl)cc1-c1ccnc3c(C(=O)O)csc13)CC(N(C)C)CC2 (single isomer, unassigned) [Compound 296]")
"< 4.70"
>>> assay_result("Cc1cc(-c2cc(Cl)ccc2OCCn2c(C)nc3c(c2=O)CC(N2CCC(OC(F)(F)F)CC2)CC3(C)C)c2scc(C(=O)O)c2n1 (single isomer, unassigned)")
"4.70 to 5.30"

Query block: Provide one value: measured pIC50 of Cc1cc(-c2cc(Cl)ccc2OCCn2c(C)nc3c(c2=O)C[C@@H](N2CCC(c4cn(C)cn4)CC2)CC3)c2scc(C(=O)O)c2n1 (single isomer, unassigned)
Result block: < 4.70

Query block: Provide one value: measured pIC50 of Cc1cc(-c2cc(Cl)ccc2OCCn2c(C)nc3c(c2=O)C[C@H](N2CCC[C@@]4(CN(CC(F)(F)F)CC4(F)F)C2)CC3)c2scc(C(=O)O)c2n1 (single isomer, unassigned)
Result block: > 5.30

Query block: Provide one value: measured pIC50 of Cc1nc2c(c(=O)n1CCOc1ccc(Cl)cc1-c1ccnn3c(C(=O)O)ccc13)CC(N(C)C)CC2 (stereo not drawn)
Result block: < 4.70

Query block: Provide one value: measured pIC50 of Cc1cc(-c2cc(Cl)ccc2OCCn2c(C)nc3c(c2=O)C[C@H](N2C[C@@H]4CC(F)(F)C[C@@H]4C2)CC3)c2scc(C(=O)NS(C)(=O)=O)c2n1 (single isomer, unassigned)
Result block: > 5.30

Query block: Provide one value: measured pIC50 of Cc1cc(-c2cc(Cl)ccc2OCCn2c(C)nc3c(c2=O)CC(N2CCC4(C2)CC(F)(F)C4)CC3)c2scc(C(=O)O)c2n1 (stereo not drawn)
Result block: > 5.30

Query block: Provide one value: measured pIC50 of Cc1cc(-c2cc(Cl)ccc2OCCn2c(C)nc3c(c2=O)C[C@@H](N2CCCC[C@@H]2c2nccs2)CC3)c2scc(C(=O)O)c2n1 (single isomer, unassigned)
Result block: < 4.70

Source of measurements: patent US20240246918A1
